Answer each item with its documented inhibition at 0.1 µM.
- system.tested: Recombinant human JARID1B/KDM5B (Homo sapiens)
- Construct: purchased Active Motif 31432; host or cells: Sf9 insect cells
- procedure.summary: LANCE Ultra TR-FRET demethylase assay with FLAG-tagged JARID1B
- Type: biochemical
- condition.description: 100 nM compound; 500 nM biotinylated H3K4me3 peptide substrate

I'm curious: which inhibition at 0.1 µM was measured for O=c1[nH]c(COc2ccc(F)c(Cl)c2)nc2c(CNCc3ccnc(Cl)c3)nccc12 [Example 182] tested on Recombinant human JARID1B/KDM5B (Homo sapiens)?
20 to 50%

API: value(readout= inhibition at 0.1 µM, system= Recombinant human JARID1B/KDM5B (Homo sapiens), query= CN1CCC(CNCc2nccc3c(=O)[nH]c(COc4ccc(Cc5ccccc5)cc4)nc23)C1 (centres unmarked) [Example 144] )
> 50%

Give inhibition at 0.1 µM (Recombinant human JARID1B/KDM5B (Homo sapiens)) of the following compound: O=c1[nH]c(COc2cccc(CNCc3ccccc3)c2)nc2cnccc12 [Example 42]
< 20%

// map C[C@@H](Oc1ccc(F)c(Cl)c1)c1nc2c(CNCC3CCN(C)CC3)nccc2c(=O)[nH]1 [Example 218] to recorded inhibition at 0.1 µM (system: Recombinant human JARID1B/KDM5B (Homo sapiens))
20 to 50%

Reported inhibition at 0.1 µM for Recombinant human JARID1B/KDM5B (Homo sapiens), given O=c1[nH]c(COc2ccc(F)c(Cl)c2)nc2c(CNCCCn3ccnc3)nccc12 [Example 165] ?
> 50%

Form field: inhibition at 0.1 µM recorded for O=c1[nH]cnc2c(CNCC3CCCCC3)nccc12 [Example 85] with Recombinant human JARID1B/KDM5B (Homo sapiens) (enter value)
< 20%

// lookup inhibition at 0.1 µM | system=Recombinant human JARID1B/KDM5B (Homo sapiens) | key= O=C(CC1CCNCC1)NCc1nccc2c(=O)[nH]c(COc3ccc(F)c(Cl)c3)nc12 [Example 240]
< 20%

Tell me reported inhibition at 0.1 µM for O=c1[nH]c(COc2ccc(Cc3ccccc3)cc2)nc2c(CNCC3CCNCC3)nccc12 [Example 121] , tested with Recombinant human JARID1B/KDM5B (Homo sapiens).
> 50%

----------
- system.tested: Recombinant human JARID1B/KDM5B (Homo sapiens, UniProt Q9UGL1)
- Construct: purchased Active Motif 31432; host or cells: Sf9 insect cells
- Sequence (Q9UGL1 whole entry): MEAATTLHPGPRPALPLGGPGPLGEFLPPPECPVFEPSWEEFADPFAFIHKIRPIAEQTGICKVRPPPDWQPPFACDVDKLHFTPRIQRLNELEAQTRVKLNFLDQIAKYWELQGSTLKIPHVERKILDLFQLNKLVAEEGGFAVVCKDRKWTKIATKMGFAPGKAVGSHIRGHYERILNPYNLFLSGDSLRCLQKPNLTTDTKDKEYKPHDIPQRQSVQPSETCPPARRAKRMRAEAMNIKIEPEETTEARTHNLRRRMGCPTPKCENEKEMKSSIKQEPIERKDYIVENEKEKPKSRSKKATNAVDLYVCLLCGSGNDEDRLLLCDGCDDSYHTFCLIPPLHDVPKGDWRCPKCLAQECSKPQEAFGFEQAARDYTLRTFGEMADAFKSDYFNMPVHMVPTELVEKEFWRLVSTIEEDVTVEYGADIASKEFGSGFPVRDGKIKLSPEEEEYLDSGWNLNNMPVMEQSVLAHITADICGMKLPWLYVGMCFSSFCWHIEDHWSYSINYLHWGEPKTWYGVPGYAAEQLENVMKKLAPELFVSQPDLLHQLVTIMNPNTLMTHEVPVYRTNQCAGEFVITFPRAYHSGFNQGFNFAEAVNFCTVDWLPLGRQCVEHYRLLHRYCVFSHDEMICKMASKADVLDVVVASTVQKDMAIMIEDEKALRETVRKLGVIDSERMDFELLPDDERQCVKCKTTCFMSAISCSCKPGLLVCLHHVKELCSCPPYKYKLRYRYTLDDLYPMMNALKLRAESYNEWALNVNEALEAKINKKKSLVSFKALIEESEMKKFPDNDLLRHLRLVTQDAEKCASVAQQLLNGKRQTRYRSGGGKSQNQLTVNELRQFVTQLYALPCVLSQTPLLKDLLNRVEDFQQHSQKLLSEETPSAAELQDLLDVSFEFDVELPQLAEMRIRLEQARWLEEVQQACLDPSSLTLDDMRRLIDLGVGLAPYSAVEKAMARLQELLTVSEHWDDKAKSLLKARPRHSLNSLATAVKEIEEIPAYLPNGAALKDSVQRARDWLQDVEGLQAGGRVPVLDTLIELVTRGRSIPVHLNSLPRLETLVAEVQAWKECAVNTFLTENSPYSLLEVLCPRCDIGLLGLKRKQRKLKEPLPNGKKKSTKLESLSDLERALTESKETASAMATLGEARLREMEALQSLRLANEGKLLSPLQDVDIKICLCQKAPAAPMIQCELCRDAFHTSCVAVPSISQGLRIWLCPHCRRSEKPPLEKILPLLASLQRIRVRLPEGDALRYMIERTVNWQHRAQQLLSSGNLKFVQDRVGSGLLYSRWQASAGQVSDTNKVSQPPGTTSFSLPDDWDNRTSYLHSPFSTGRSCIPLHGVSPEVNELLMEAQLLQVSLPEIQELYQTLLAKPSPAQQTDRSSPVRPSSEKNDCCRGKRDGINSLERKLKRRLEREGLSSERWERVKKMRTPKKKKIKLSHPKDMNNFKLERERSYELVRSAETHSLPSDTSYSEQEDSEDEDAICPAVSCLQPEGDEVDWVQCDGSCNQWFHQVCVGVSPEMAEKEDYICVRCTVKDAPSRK
- procedure.summary: LANCE Ultra TR-FRET demethylase assay with FLAG-tagged JARID1B
- Assay type: biochemical
- condition.description: 100 nM compound; 500 nM biotinylated H3K4me3 peptide substrate
- Description: FLAG-tagged JARID1B (also known as KDM5B) protein was screened against more than 170 compounds. For this compound screening, LANCE Ultra time-resolved fluorescence resonance energy transfer (TR-FRET) assay was employed using an europoium (Eu)-labeled antibody that can specifically recognize mono- or dimethylated peptides (H3K4me2/1) and ULight-streptavidin (ULight-SA), a small molecule fluorescent dye. […]
Consider the following compounds; for each one, report its inhibition at 0.1 µM.

Tell me reported inhibition at 0.1 µM for CN1CCC(CNCc2nccc3c(=O)[nH]c(COCc4cccc(Cl)c4)nc23)CC1 , tested with Recombinant human JARID1B/KDM5B (Homo sapiens, UniProt Q9UGL1).
> 50%

Any idea what inhibition at 0.1 µM came out for O=c1[nH]c(COc2ccncc2)nc2c(CNCC3CCN(Cc4ccccc4)CC3)nccc12 on Recombinant human JARID1B/KDM5B (Homo sapiens, UniProt Q9UGL1)?
> 50%

inhibition at 0.1 µM of N[C@H]1CCN(C(=O)CNCc2nccc3c(=O)[nH]c(COc4ccc(F)c(Cl)c4)nc23)C1 on Recombinant human JARID1B/KDM5B (Homo sapiens, UniProt Q9UGL1)?
> 50%

API: value(readout=inhibition at 0.1 µM, system=Recombinant human JARID1B/KDM5B (Homo sapiens, UniProt Q9UGL1)) for record O=c1[nH]c(COc2ccc(F)c(Cl)c2)nc2c(CNCC3CNCCO3)nccc12 (stereo not drawn)
> 50%

API: value(readout= inhibition at 0.1 µM, system= Recombinant human JARID1B/KDM5B (Homo sapiens, UniProt Q9UGL1), query= CN1CCC(CNCc2nccc3c(=O)[nH]cnc23)CC1 )
20 to 50%

Item CN1CCC(CNCc2nccc3c(=O)[nH]c(COc4ccc(F)c(Cl)c4)nc23)CC1 with Recombinant human JARID1B/KDM5B (Homo sapiens, UniProt Q9UGL1) - inhibition at 0.1 µM?
> 50%

So what inhibition at 0.1 µM did O=c1[nH]c(COc2ccc(Cl)cc2Cl)nc2c(CNCC3CCNCC3)nccc12 get with Recombinant human JARID1B/KDM5B (Homo sapiens, UniProt Q9UGL1)?
20 to 50%

Entry O=c1[nH]c(COc2ccc(Cc3ccccc3)cc2)nc2c(CNCC3CCOCC3)nccc12 , system Recombinant human JARID1B/KDM5B (Homo sapiens, UniProt Q9UGL1): what inhibition at 0.1 µM was measured?
> 50%

Given the entry O=c1[nH]cnc2c(CNCC3CCN(Cc4ccccc4)CC3)nccc12 , what inhibition at 0.1 µM was observed with Recombinant human JARID1B/KDM5B (Homo sapiens, UniProt Q9UGL1)?
20 to 50%

What measured inhibition at 0.1 µM is associated with O=c1[nH]c(COc2ccc(F)c(Cl)c2)nc2c(CNCc3ccccn3)nccc12 on Recombinant human JARID1B/KDM5B (Homo sapiens, UniProt Q9UGL1)?
20 to 50%

Lab note: need inhibition at 0.1 µM with Recombinant human JARID1B/KDM5B (Homo sapiens, UniProt Q9UGL1) for entry O=c1[nH]c(COc2ccc(F)c(Cl)c2)nc2c(CNCC3CCOC3)nccc12 (stereo not drawn) , please look it up.
< 20%

Item O=C1c2cccnc2CN1CCCNCc1nccc2c(=O)[nH]c(COc3ccc(F)c(Cl)c3)nc12 with Recombinant human JARID1B/KDM5B (Homo sapiens, UniProt Q9UGL1) - inhibition at 0.1 µM?
20 to 50%

What value of inhibition at 0.1 µM on Recombinant human JARID1B/KDM5B (Homo sapiens, UniProt Q9UGL1) does O=c1[nH]c(COc2ccccn2)nc2c(CNCC3CCNCC3)nccc12 have?
< 20%

// lookup inhibition at 0.1 µM | system=Recombinant human JARID1B/KDM5B (Homo sapiens, UniProt Q9UGL1) | key= N[C@H]1CC[C@H](NCc2nccc3c(=O)[nH]c(COc4ccc(Cc5ccccc5)cc4)nc23)CC1
20 to 50%

Can you look up inhibition at 0.1 µM on Recombinant human JARID1B/KDM5B (Homo sapiens, UniProt Q9UGL1) for O=C(CNCc1nccc2c(=O)[nH]c(COc3ccc(F)c(Cl)c3)nc12)N1CCOCC1 ?
20 to 50%

Can you look up inhibition at 0.1 µM on Recombinant human JARID1B/KDM5B (Homo sapiens, UniProt Q9UGL1) for CCCCN(CC)C(=O)CNCc1nccc2c(=O)[nH]c(COc3ccc(F)c(Cl)c3)nc12 ?
20 to 50%

Short answer please: inhibition at 0.1 µM, Recombinant human JARID1B/KDM5B (Homo sapiens, UniProt Q9UGL1), entry O=c1[nH]c(COc2ccccc2Cl)nc2c(CNCC3CCN(Cc4ccccc4)CC3)nccc12
> 50%

API: value(readout=inhibition at 0.1 µM, system=Recombinant human JARID1B/KDM5B (Homo sapiens, UniProt Q9UGL1)) for record CCN(CC)C1CCN(C(=O)CNCc2nccc3c(=O)[nH]c(COc4ccc(F)c(Cl)c4)nc23)C1 (stereo not drawn)
> 50%

State its inhibition at 0.1 µM on Recombinant human JARID1B/KDM5B (Homo sapiens, UniProt Q9UGL1): O=c1[nH]c(COc2ccc(Cc3ccccc3)cc2)nc2c(CNC[C@H]3CCCO3)nccc12
20 to 50%

Report inhibition at 0.1 µM for O=c1[nH]c(COc2ccc(F)c(Cl)c2)nc2c(CNC[C@H]3CNCCO3)nccc12 tested on Recombinant human JARID1B/KDM5B (Homo sapiens, UniProt Q9UGL1).
> 50%

GET /values?readout=inhibition at 0.1 µM&system=Recombinant human JARID1B/KDM5B (Homo sapiens, UniProt Q9UGL1)&item= O=c1[nH]c(COc2ccc(Cc3ccccc3)cc2)nc2c(CNC[C@H]3CCCNC3)nccc12
> 50%

Give the reported inhibition at 0.1 µM for O=c1[nH]c(COc2ccc(Cc3ccccc3)cc2)nc2c(CNCCCCN3CCCC3)nccc12 (system: Recombinant human JARID1B/KDM5B (Homo sapiens, UniProt Q9UGL1)).
20 to 50%

What measured inhibition at 0.1 µM is associated with CN1CCC(CNCc2nccc3c(=O)[nH]c(COCc4ccccc4Cl)nc23)CC1 on Recombinant human JARID1B/KDM5B (Homo sapiens, UniProt Q9UGL1)?
> 50%

Kindly state the measured inhibition at 0.1 µM obtained for CN1CCC(CNCc2nccc3c(=O)[nH]c(COCc4ccccc4)nc23)CC1 with Recombinant human JARID1B/KDM5B (Homo sapiens, UniProt Q9UGL1).
> 50%

# value lookup — system Recombinant human JARID1B/KDM5B (Homo sapiens, UniProt Q9UGL1), readout inhibition at 0.1 µM, item CCN1CCC[C@@H]1CNCc1nccc2c(=O)[nH]c(COc3ccc(Cc4ccccc4)cc3)nc12
20 to 50%

For the record O=c1[nH]c(COc2cnc(Br)cn2)nc2c(CNCC3CCNCC3)nccc12 , what value of inhibition at 0.1 µM is listed for Recombinant human JARID1B/KDM5B (Homo sapiens, UniProt Q9UGL1)?
20 to 50%

Fill in the recorded inhibition at 0.1 µM for this compound, with Recombinant human JARID1B/KDM5B (Homo sapiens, UniProt Q9UGL1) as test system: O=c1[nH]c(C2CCCC2)nc2c(CNCC3CCNCC3)nccc12
< 20%

Find the measured inhibition at 0.1 µM: item CC(Oc1ccc(Cc2ccccc2)cc1)c1nc2c(CNCC3CCN(C)C3)nccc2c(=O)[nH]1 (stereo not drawn) , target or system Recombinant human JARID1B/KDM5B (Homo sapiens, UniProt Q9UGL1).
20 to 50%

Report inhibition at 0.1 µM for O=c1[nH]cnc2c(CNC[C@@H]3CCCNC3)nccc12 tested on Recombinant human JARID1B/KDM5B (Homo sapiens, UniProt Q9UGL1).
< 20%

Find inhibition at 0.1 µM (Recombinant human JARID1B/KDM5B (Homo sapiens, UniProt Q9UGL1)) for the entry O=c1[nH]c(COc2ccc(F)c(Cl)c2)nc2c(CNCc3cccs3)nccc12
20 to 50%

Recorded inhibition at 0.1 µM for O=C(CNCc1nccc2c(=O)[nH]c(COc3ccc(F)c(Cl)c3)nc12)N1CCCCC1 with Recombinant human JARID1B/KDM5B (Homo sapiens, UniProt Q9UGL1), please?
20 to 50%

I'm curious: which inhibition at 0.1 µM was measured for CN(C)C1CCN(C(=O)CNCc2nccc3c(=O)[nH]c(COc4ccc(F)c(Cl)c4)nc23)C1 (stereo not drawn) tested on Recombinant human JARID1B/KDM5B (Homo sapiens, UniProt Q9UGL1)?
> 50%

Hi! What's the reported inhibition at 0.1 µM for O=c1[nH]c(COc2ccccc2Br)nc2c(CNCC3CCNCC3)nccc12 on Recombinant human JARID1B/KDM5B (Homo sapiens, UniProt Q9UGL1)?
20 to 50%
